These data points were gathered from patent EP3922633B1.

Below: a set of entries, each annotated with reported φ Aqueuse (résidu de distillation) C [ppm].
- assay notes: Hydrodistillation of lemon essential oil doped with pyrrolizidine alkaloids; alkaloids assayed in distillate and aqueous phase by UPLC-HRMS/TOF
- Type: physicochemical
- test parameters: Tableau 4; Huile essentielle de Citron dopée (as titled); after 2 h hydrodistillation; duplicate 1

These recorded examples may help you get a feel for the data.
Tell me φ Aqueuse (résidu de distillation) C [ppm] reported for CC(C)[C@@](O)(C(=O)OCC1=CC[N+]2([O-])CC[C@@H](O)[C@@H]12)[C@H](C)O (stereo partly shown) [Lycopsamine-N-oxyde] 0.024 ppm

For the compound C/C=C1/C[C@@H](C)[C@](O)(CO)C(=O)OCC2=CC[N@@+]3([O-])CC[C@@H](OC1=O)[C@@H]23 [Rétrorsine-N-oxyde] , give its reported φ Aqueuse (résidu de distillation) C [ppm]. 0.678 ppm

Indicate its recorded φ Aqueuse (résidu de distillation) C [ppm]; the compound in question is CC(C)[C@](O)(C(=O)OCC1=CCN2CC[C@@H](O)[C@@H]12)[C@@H](C)O (stereo in doubt) [Lycopsamine] 0.588 ppm

Turning now to a further compound:
Look up φ Aqueuse (résidu de distillation) C [ppm] of C/C=C1\C[C@@H](C)[C@](O)(CO)C(=O)OCC2=CCN3CC[C@@H](OC1=O)[C@@H]23 [Rétrorsine] and report it. 0.663 ppm

* * *

φ Aqueuse (résidu de distillation) CT [ppm] values, listed per item
- assay notes: Hydrodistillation of lemon essential oil doped with pyrrolizidine alkaloids; alkaloids assayed in distillate and aqueous phase by UPLC-HRMS/TOF
- Format: physicochemical
- test parameters: Tableau 4; Huile essentielle de Citron dopée (as titled); Concentration théorique; (duplicate 2)
Give me the value, and tack the unit on after it.

Example cases with answers are listed next.
Input CC(C)[C@@](O)(C(=O)OCC1=CC[N+]2([O-])CC[C@@H](O)[C@@H]12)[C@H](C)O (stereo partly shown) , output reported φ Aqueuse (résidu de distillation) CT [ppm]. 0.030 ppm

Specify φ Aqueuse (résidu de distillation) CT [ppm] for CC(C)[C@](O)(C(=O)OCC1=CCN2CC[C@@H](O)[C@@H]12)[C@@H](C)O (stereo in doubt) and stop. 0.597 ppm

Quote φ Aqueuse (résidu de distillation) CT [ppm] reported for C/C=C1/C[C@@H](C)[C@](O)(CO)C(=O)OCC2=CC[N@@+]3([O-])CC[C@@H](OC1=O)[C@@H]23 please. 0.593 ppm

Now for the compound whose φ Aqueuse (résidu de distillation) CT [ppm] we want.
For the compound C/C=C1\C[C@@H](C)[C@](O)(CO)C(=O)OCC2=CCN3CC[C@@H](OC1=O)[C@@H]23 , give its measured φ Aqueuse (résidu de distillation) CT [ppm] value. 0.828 ppm

* * *

- assay notes: Hydrodistillation of lemon essential oil doped with pyrrolizidine alkaloids; alkaloids assayed in distillate and aqueous phase by UPLC-HRMS/TOF
- Format: physicochemical
- test parameters: Tableau 4; Huile essentielle de Citron dopée (as titled); after 2 h hydrodistillation; duplicate 1; LOQ : 2 ppb
quantity: φ Organique (distillat) C [ppm]

Find the measured φ Organique (distillat) C [ppm] of CC(C)[C@@](O)(C(=O)OCC1=CC[N+]2([O-])CC[C@@H](O)[C@@H]12)[C@H](C)O (stereo partly shown) and report it. < LoQ

Provide φ Organique (distillat) C [ppm] value for the following compound: C/C=C1\C[C@@H](C)[C@](O)(CO)C(=O)OCC2=CCN3CC[C@@H](OC1=O)[C@@H]23 < LoQ

Annotate the compound C/C=C1/C[C@@H](C)[C@](O)(CO)C(=O)OCC2=CC[N@@+]3([O-])CC[C@@H](OC1=O)[C@@H]23 with its measured φ Organique (distillat) C [ppm]. < LoQ

Recall and state the measured φ Organique (distillat) C [ppm] for CC(C)[C@](O)(C(=O)OCC1=CCN2CC[C@@H](O)[C@@H]12)[C@@H](C)O (stereo in doubt) . < LoQ
